Target: MAGL protein (Homo sapiens)
Sequence (Q99685 1-303): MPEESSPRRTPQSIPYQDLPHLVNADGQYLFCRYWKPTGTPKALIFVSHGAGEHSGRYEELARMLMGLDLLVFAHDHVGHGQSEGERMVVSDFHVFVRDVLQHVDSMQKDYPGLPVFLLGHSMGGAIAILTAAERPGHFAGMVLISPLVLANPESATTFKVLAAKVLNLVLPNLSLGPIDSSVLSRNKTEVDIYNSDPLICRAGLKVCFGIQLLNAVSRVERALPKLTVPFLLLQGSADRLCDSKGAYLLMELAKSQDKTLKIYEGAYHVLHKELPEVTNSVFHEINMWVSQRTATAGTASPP
quantity-name: log10 IC50 (log10 of the value in nM)

molecule: Cc1cc(C2CC2)n(C23CC(C4CN(C(=O)N5CC6(CC(c7nc(C8CC8)n[nH]7)C6)C5)C4)(C2)C3)n1 [compound 587]
measured-on: MAGL protein (Homo sapiens)
quantitative-readout: 0.38

molecule: O=C(N1CC2(CC(c3nc(C4CC4)n[nH]3)C2)C1)N1CC2(CC(C(F)(F)c3cnc(C(F)(F)F)cn3)C2)C1 [compound 944]
measured-on: MAGL protein (Homo sapiens)
quantitative-readout: -0.02

molecule: O=C(N1CC(OCc2ccc(C(F)(F)F)cc2F)C1)N1CC2(CC(c3nnc([C@@H](O)C(F)(F)F)[nH]3)C2)C1 (single isomer, unassigned) [Example 388]
measured-on: MAGL protein (Homo sapiens)
quantitative-readout: 2.61

molecule: CS(=O)(=O)c1cc(F)cc(CC2CC3(C2)CN(C(=O)N2CC4(CC(c5nnc(C6CC6)[nH]5)C4)C2)C3)c1 [compound 18]
measured-on: MAGL protein (Homo sapiens)
quantitative-readout: -0.52

molecule: O=C(N1CC(NS(=O)(=O)c2cccc(OC(F)(F)F)c2)C1)N1CC2(CC(c3nnc(C4CC4)[nH]3)C2)C1 [compound 205]
measured-on: MAGL protein (Homo sapiens)
quantitative-readout: 2.19

molecule: O=C(N1CC2(CC(Cc3ccc(F)cc3F)C2)C1)N1CC2(CC(c3nnc(C4(O)CC4)[nH]3)C2)C1 [compound 36]
measured-on: MAGL protein (Homo sapiens)
quantitative-readout: -1.30

----------
pIC50 for assorted compounds
Molecular target: MAGL protein (Homo sapiens, UniProt Q99685)
Sequence (Q99685 1-303): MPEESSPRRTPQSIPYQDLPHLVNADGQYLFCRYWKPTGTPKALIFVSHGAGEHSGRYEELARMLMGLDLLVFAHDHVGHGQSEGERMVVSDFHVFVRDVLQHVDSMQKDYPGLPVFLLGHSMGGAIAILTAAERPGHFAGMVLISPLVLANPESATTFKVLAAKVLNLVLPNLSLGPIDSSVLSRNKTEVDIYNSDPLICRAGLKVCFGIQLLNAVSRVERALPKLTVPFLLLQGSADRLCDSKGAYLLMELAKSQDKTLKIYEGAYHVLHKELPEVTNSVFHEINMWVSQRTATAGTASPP
pIC50: −log10 of the molar value.

compound: O=C(N1CC(c2ccc(Oc3ccccc3Cl)nc2)C1)N1CC2(CC(c3nnc(C4CC4)[nH]3)C2)C1 [compound 367]
pIC50: 9.82

compound: Cn1ncc(CC2CC3(C2)CN(C(=O)N2CC4(CC(c5nc(C6(F)CC6)n[nH]5)C4)C2)C3)c1C(F)(F)F [compound 475]
pIC50: 10.10

compound: O=C(N1CC(c2ccc(OCC3(C(F)(F)F)CC3)cc2)C1)N1CC2(CC(c3nnc(C4(O)CC4)[nH]3)C2)C1 [compound 375]
pIC50: 8.72

compound: O=C(N1CC2(CC(Cc3nccc(C(F)(F)F)n3)C2)C1)N1CC2(CC(c3nc(C4CC4)n[nH]3)C2)C1 [compound 403]
pIC50: 9.12

----------
# pIC50 values compiled below
Target chain: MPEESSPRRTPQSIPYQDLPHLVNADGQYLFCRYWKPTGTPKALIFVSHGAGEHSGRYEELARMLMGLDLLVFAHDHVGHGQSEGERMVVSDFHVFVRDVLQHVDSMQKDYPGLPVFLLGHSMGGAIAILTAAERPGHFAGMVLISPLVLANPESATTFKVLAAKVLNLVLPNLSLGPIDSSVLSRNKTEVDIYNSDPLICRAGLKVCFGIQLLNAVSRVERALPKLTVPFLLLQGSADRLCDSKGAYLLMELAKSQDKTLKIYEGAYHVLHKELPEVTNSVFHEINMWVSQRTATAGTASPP
pIC50: −log10 of the molar value.
quantity-name: pIC50

molecule: CS(=O)(=O)C1(c2ccc(C3CN(C(=O)N4CC5(CC(c6nc(C7(O)CC7)n[nH]6)C5)C4)C3)cc2)CC1
quantitative-readout: 8.01

molecule: N=S(=O)(c1cccc(CC2CC3(C2)CN(C(=O)N2CC4(CC(c5nnc(C6CC6)[nH]5)C4)C2)C3)c1)C(F)(F)F (racemic)
quantitative-readout: 10.10

molecule: O=C(N1CCN(Cc2ccc(C(F)(F)F)cn2)CC1)N1CC2(CC(c3nnc(C4CC4)[nH]3)C2)C1
quantitative-readout: 6.09

----------
IC50 values, listed per item
Target: MAGL protein (Homo sapiens, UniProt Q99685)
Sequence (Q99685 1-303): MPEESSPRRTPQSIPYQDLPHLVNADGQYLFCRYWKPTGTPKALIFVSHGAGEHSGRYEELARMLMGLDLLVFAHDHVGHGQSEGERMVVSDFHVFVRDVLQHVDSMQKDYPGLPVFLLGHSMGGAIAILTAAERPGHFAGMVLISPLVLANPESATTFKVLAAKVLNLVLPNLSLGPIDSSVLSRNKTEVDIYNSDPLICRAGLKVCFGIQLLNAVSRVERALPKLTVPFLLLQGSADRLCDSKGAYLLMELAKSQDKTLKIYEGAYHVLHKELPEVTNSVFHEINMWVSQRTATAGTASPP

compound: CC(C)(C)c1c[nH]c(CN2CC3(C2)CN(C(=O)N2CC4(CC(c5nc(C6CC6)n[nH]5)C4)C2)C3)n1
unit: nM
IC50: 40.9
//
compound: O=C(N1CC(OCc2ccc(C(F)(F)F)cc2F)C1)N1CC2(CC(c3nnc(C(O)C(F)(F)F)[nH]3)C2)C1 (stereo not shown)
unit: nM
IC50: 55.8
//
compound: O=C(N1CC(c2ccc(N3CC(C(F)(F)F)C3)nc2)C1)N1CC2(CC(c3nnc(C4CCC4)[nH]3)C2)C1
unit: nM
IC50: 19.7
//
compound: NC(=O)[C@H]1CCCN1c1ccc(C2CN(C(=O)N3CC4(CC(c5nnc(C6CC6)[nH]5)C4)C3)C2)cc1
unit: nM
IC50: 2.4
//
compound: O=C(N1CC2(CCC(Cc3ccc(Cl)cn3)CC2)C1)N1CC2(CC(c3nc(C4CC(F)(F)C4)n[nH]3)C2)C1
unit: nM
IC50: 98.5
//
compound: O=C(N1CC2(CC(Cc3cc(F)cc(C(F)(F)F)c3)C2)C1)N1CC2(CC(c3nnc(C4CC4)[nH]3)C2)C1
unit: nM
IC50: 0.01
//
compound: O=C(N1CC2(CC(Oc3ccc(C(F)(F)F)nc3)C2)C1)N1CC2(CC(c3nnc(C4CC4)[nH]3)C2)C1
unit: nM
IC50: 2.79

----------
Target: MAGL protein (Homo sapiens)
Sequence (Q99685 1-303): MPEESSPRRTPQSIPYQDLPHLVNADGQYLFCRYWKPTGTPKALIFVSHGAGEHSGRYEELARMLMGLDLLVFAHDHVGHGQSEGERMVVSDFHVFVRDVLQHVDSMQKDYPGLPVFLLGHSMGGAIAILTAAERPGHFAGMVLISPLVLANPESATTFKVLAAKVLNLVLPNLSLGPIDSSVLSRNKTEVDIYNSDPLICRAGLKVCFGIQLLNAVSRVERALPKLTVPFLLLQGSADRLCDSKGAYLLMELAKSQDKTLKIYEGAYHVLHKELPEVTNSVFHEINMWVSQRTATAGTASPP
pIC50: −log10 of the molar value.

substance-smiles: O=C(N1CC2(CC(Cc3nc(C(F)(F)F)ns3)C2)C1)N1CC2(CC(c3nnc(C4CC4)[nH]3)C2)C1
pIC50: 9.28
//
substance-smiles: N#Cc1cc(F)ccc1C12CC(C3CN(C(=O)N4CC5(CC(c6nc(C7CC7)n[nH]6)C5)C4)C3)(C1)C2
pIC50: 9.25
//
substance-smiles: CC(C)(O)Cn1nc(C2CCN(C(=O)N3CC4(CC(c5nnc(C6CC6)[nH]5)C4)C3)CC2)c2cc(Cl)ccc21
pIC50: 7.88
//
substance-smiles: O=C(N1CC2(CCN(Cc3ccc(C(F)(F)F)cc3F)CC2)C1)N1CC2(CC(c3nnc(C4CC4)[nH]3)C2)C1
pIC50: 9.42
//
substance-smiles: O=C(N1CC(C23CC(c4ccc(OC(F)(F)F)cc4)(C2)C3)C1)N1CC2(CC(c3nc(C4(O)CC4)n[nH]3)C2)C1
pIC50: 9.74
//
substance-smiles: O=C(N1CC2(CC(Cc3ccc(C(F)(F)F)nn3)C2)C1)N1CC2(CC(c3nc(C4(F)CC4)n[nH]3)C2)C1
pIC50: 8.58
//
substance-smiles: N#Cc1ccc(CC2CC3(C2)CN(C(=O)N2CC4(CC(c5nc(C6CC6)n[nH]5)C4)C2)C3)c(F)c1
pIC50: 10.30
